# Test name: Phase 2 toxicokinetics of brincidofovir and cidofovir in plasma
# Type: in vivo, Sprague-Dawley CD rats
# Test parameters: male, Sprague-Dawley CD, rat, plasma, iv, 1 mg/kg, brincidofovir in plasma; 1 mg/kg 2-hour IV infusion, Male rats, Day 7
Measurement name: Cmax (ng/mL)

Smiles code: CCCCCCCCCCCCCCCCOCCCOP(=O)(O)CO[C@H](CO)Cn1ccc(N)nc1=O
Measurement name: Cmax
Endpoint unit: ng/mL
Data value: 208

----------
# Test name: IV BCV single ascending dose study: plasma BCV and CDV PK
# Assay type: in vivo, human
# Test parameters: human, plasma, iv, 10 mg, plasma BCV, Cohort 1, BCV 10 mg 2 h IV infusion, n = 6

Compound: CCCCCCCCCCCCCCCCOCCCOP(=O)(O)CO[C@H](CO)Cn1ccc(N)nc1=O [Brincidofovir]
half-life (h): 3.42

----------
# Test name: IV BCV single ascending dose study: plasma BCV and CDV PK
# Assay type: in vivo, human
# Test parameters: human, plasma, po, 100 mg, BCV oral 100 mg tablets; read-out: Plasma BCV AUC∞
Measurement name: AUC(0-inf) (ng·h/mL)

Compound: CCCCCCCCCCCCCCCCOCCCOP(=O)(O)CO[C@H](CO)Cn1ccc(N)nc1=O [Brincidofovir]
Data value: 1390

----------
# Test name: IV BCV single ascending dose study: plasma BCV and CDV PK
# Format: in vivo, human
# Test parameters: human, plasma, iv, 50 mg, plasma BCV, Cohort 4, BCV 50 mg 4 h IV infusion, n = 9

Smiles code: CCCCCCCCCCCCCCCCOCCCOP(=O)(O)CO[C@H](CO)Cn1ccc(N)nc1=O
half-life [h]: 5.1

----------
# Test name: 28-day study toxicokinetics of brincidofovir and CDV in plasma
# Type: in vivo, Sprague-Dawley CD rats
# Test parameters: both sexes, Sprague-Dawley CD, rat, in vivo, iv, 15 mg/kg, plasma brincidofovir; Day 1; 15 mg/kg; combined male and female; Mean

Smiles code: CCCCCCCCCCCCCCCCOCCCOP(=O)(O)CO[C@H](CO)Cn1ccc(N)nc1=O
AUC(0-t): 8820 ng·h/mL

----------
# Test name: Phase 2 toxicokinetics of brincidofovir and cidofovir in plasma
# Format: in vivo, Sprague-Dawley CD rats
# Test parameters: male, Sprague-Dawley CD, rat, plasma, intravenous, 15 mg/kg, plasma; 15 mg/kg; male rats; Day 1; 8 h; read-out: C (Concentration), individual animals

Smiles code: CCCCCCCCCCCCCCCCOCCCOP(=O)(O)CO[C@H](CO)Cn1ccc(N)nc1=O
concentration at 8 h [ng/mL]: 10.7

----------
# Test name: IV BCV single ascending dose study: plasma BCV and CDV PK
# Assay type: in vivo, human
# Test parameters: human, plasma, iv, 50 mg, plasma BCV, Cohort 3, BCV 50 mg 2 h IV infusion, n = 9

Smiles code: CCCCCCCCCCCCCCCCOCCCOP(=O)(O)CO[C@H](CO)Cn1ccc(N)nc1=O
half-life, min: 392

----------
# Test name: 28-day study toxicokinetics of brincidofovir and CDV in plasma
# Type: in vivo, Sprague-Dawley CD rats
# Test parameters: both sexes, Sprague-Dawley CD, rat, in vivo, iv, 1 mg/kg, plasma brincidofovir; Day 1; 1 mg/kg; combined male and female; Median; only 2 quantifiable data points
# Experimental: Blood samples were obtained for the determination of plasma concentrations of brincidofovir and the brincidofovir metabolite, cidofovir. Approximately 0.40 mL of whole blood was obtained via the tail vein from each animal at each time point. Animals were not fasted prior to blood collection. […] Bioanalytical samples were analyzed using a validated liquid chromatographic-triple quadruple mass spectrometric (LC-MS/MS) assay at Pyxant Labs. […]
Measurement name: AUC(0-t) (ng·h/mL)

Smiles code: CCCCCCCCCCCCCCCCOCCCOP(=O)(O)CO[C@H](CO)Cn1ccc(N)nc1=O
Data value: 305

----------
# Test name: Phase 2 toxicokinetics of brincidofovir and cidofovir in plasma
# Format: in vivo, Sprague-Dawley CD rats
# Test parameters: female, Sprague-Dawley CD, rat, plasma, iv, 1 mg/kg, brincidofovir in plasma; 1 mg/kg 2-hour IV infusion, Female rats, Day 1; read-out: Tmax

Smiles code: CCCCCCCCCCCCCCCCOCCCOP(=O)(O)CO[C@H](CO)Cn1ccc(N)nc1=O
Tmax (h): 2

----------
# Test name: Phase 2 toxicokinetics of brincidofovir and cidofovir in plasma
# Format: in vivo, Sprague-Dawley CD rats
# Test parameters: male, Sprague-Dawley CD, rat, plasma, iv, 1 mg/kg, brincidofovir in plasma; 1 mg/kg 2-hour IV infusion, Male rats, Day 1; read-out: Tmax
Measurement name: Tmax (h)

Smiles code: CCCCCCCCCCCCCCCCOCCCOP(=O)(O)CO[C@H](CO)Cn1ccc(N)nc1=O
Measurement name: Tmax
Endpoint unit: h
Data value: 2

----------
# Test name: Phase 2 toxicokinetics of brincidofovir and cidofovir in plasma
# Format: in vivo, Sprague-Dawley CD rats
# Test parameters: male, Sprague-Dawley CD, rat, plasma, intravenous, 1 mg/kg, plasma; brincidofovir 1 mg/kg 2-h IV infusion; male rats; Day 1; 2 h; BLQ imputed as zero; read-out: Imputed Concentration, Mean
Measurement name: concentration at 2 h (ng/mL)

Smiles code: Nc1ccn(C[C@@H](CO)OCP(=O)(O)O)c(=O)n1
Data value: 0
//
Smiles code: CCCCCCCCCCCCCCCCOCCCOP(=O)(O)CO[C@H](CO)Cn1ccc(N)nc1=O
Data value: 235

----------
# Test name: Comparison of toxicity of orally and intravenously administered brincidofovir (rat intestine)
# Format: in vivo
# Test parameters: rat, in vivo; oral, single dose 300 mg/kg; read-out: Exposure Cmax

Smiles code: CCCCCCCCCCCCCCCCOCCCOP(=O)(O)CO[C@H](CO)Cn1ccc(N)nc1=O
Cmax: 1190 ng/mL

----------
# Test name: Phase 2 toxicokinetics of brincidofovir and cidofovir in plasma
# Format: in vivo, Sprague-Dawley CD rats
# Test parameters: female, Sprague-Dawley CD, rat, plasma, intravenous, 1 mg/kg, plasma; brincidofovir 1 mg/kg 2-h IV infusion; female rats; Day 1; 8 h; BLQ imputed as zero; read-out: Imputed Concentration, Mean
# Method: Plasma samples (108) were collected 2 hours following the initiation of dosing on Day 1 and Day 7 (Group 1), or at 1, 2, 8, and 24 hours following the initiation of dosing on Day 1, and prior to administration and at 2, 8, and 24 hours following the initiation of dosing on Day 7 (Groups 2 and 3), and analyzed to determine the concentrations of brincidofovir and the metabolite, cidofovir), by LC/MS/MS. […]

Smiles code: CCCCCCCCCCCCCCCCOCCCOP(=O)(O)CO[C@H](CO)Cn1ccc(N)nc1=O
Endpoint unit: ng/mL
concentration at 8 h: 1.25
//
Smiles code: Nc1ccn(C[C@@H](CO)OCP(=O)(O)O)c(=O)n1
Endpoint unit: ng/mL
concentration at 8 h: 4.24

----------
# Test name: IV BCV single ascending dose study: plasma BCV and CDV PK
# Type: in vivo, human
# Test parameters: human, plasma, iv, 25 mg, plasma BCV, Cohort 2, BCV 25 mg 2 h IV infusion, n = 6

Compound: CCCCCCCCCCCCCCCCOCCCOP(=O)(O)CO[C@H](CO)Cn1ccc(N)nc1=O [Brincidofovir]
half-life: 5.89 h

----------
# Test name: Phase 2 toxicokinetics of brincidofovir and cidofovir in plasma
# Assay type: in vivo, Sprague-Dawley CD rats
# Test parameters: female, Sprague-Dawley CD, rat, plasma, intravenous, 1 mg/kg, brincidofovir 1 mg/kg, Female, Day 1, 1 h; read-out: brincidofovir Imputed Mean Concentration (IMC)

Compound: CCCCCCCCCCCCCCCCOCCCOP(=O)(O)CO[C@H](CO)Cn1ccc(N)nc1=O [Brincidofovir]
concentration at 1 h [ng/mL]: 137

----------
# Test name: 28-day study toxicokinetics of brincidofovir and CDV in plasma
# Format: in vivo, Sprague-Dawley CD rats
# Test parameters: both sexes, Sprague-Dawley CD, rat, in vivo, iv, 1 mg/kg, plasma brincidofovir, Day 29, 1 mg/kg, combined male and female rats, mean; calculated using only 2 quantifiable data points
# Description: Blood samples were obtained for the determination of plasma concentrations of brincidofovir and the brincidofovir metabolite, cidofovir. Approximately 0.40 mL of whole blood was obtained via the tail vein from each animal at each time point. Animals were not fasted prior to blood collection. […] Bioanalytical samples were analyzed using a validated liquid chromatographic-triple quadruple mass spectrometric (LC-MS/MS) assay at Pyxant Labs. […]
Measurement name: AUC(0-t) (ng·h/mL)

Compound: CCCCCCCCCCCCCCCCOCCCOP(=O)(O)CO[C@H](CO)Cn1ccc(N)nc1=O [Brincidofovir]
Data value: 410

----------
# Test name: Phase 2 toxicokinetics of brincidofovir and cidofovir in plasma
# Type: in vivo, Sprague-Dawley CD rats
# Test parameters: male, Sprague-Dawley CD, rat, plasma, intravenous, 1 mg/kg, plasma; brincidofovir 1 mg/kg 2-h IV infusion; male rats; Day 1; 8 h; BLQ imputed as zero; read-out: Imputed Concentration, individual animals
Measurement name: concentration at 8 h (ng/mL)

Smiles code: CCCCCCCCCCCCCCCCOCCCOP(=O)(O)CO[C@H](CO)Cn1ccc(N)nc1=O
Data value: 0
